experiment: NCI Yeast Anticancer Drug Screen. Data for the mec2-1 strain (AID 157); conditions: S. cerevisiae mec2-1 strain, at 50.0 µM, active compounds read high
About 79,000 compounds went through this panel and 15% of them were active in at least one assay; those are over-represented in the sample as a whole. Activity calls are given as the source filed them. Rule as the data show it: active = growth inhibition above about 70%; inactive = the rest.
recorded_metric: growth inhibition

CC1(C)CNC[C@@](C)(O)C(=O)NC(C)(C)CNC[C@@](C)(O)C(=O)N1 : 5.75% (inactive)
CC(C)=CCC/C(C)=C/COC(=O)N(c1ccccc1)c1ccccc1 : -0.1% (inactive)

# lookup: growth inhibition of CSc1nc(COC(=O)NC(C)C)c(COC(=O)NC(C)C)n1Cc1ccccc1 3.7% (inactive)

The measured values listed here are drawn from PubChem BioAssay (NCI).
